# Assay summary: Dimensions (size, PDI) of DNPs co-assembled from IAJDs and Luc-mRNA by DLS
# Format: physicochemical
# Run parameters: Table 17; DNPs used in vivo, IAJD 4 mg/mL, Luc-mRNA 0.10 mg/mL, acetate pH 4.0
Recorded Size (d, nm) for the following molecules
Respond with the bare value in nm.

>  <Molecule>
CCCCCCCCCCCCCCCOc1cc(COC(=O)CCCN2CCN(C)CC2)cc(OCCCCCCCCCC)c1

>  <Endpoint value>
158

$$$$

The value of Size (d, nm) measured for the molecule CCCCCCCCCCCOc1cc(COC(=O)c2cc(OCCOCCOCCCC(=O)CCCN3CCCCC3)c(OCCOCCOCCOCc3ccccc3)c(OCCOCCOCCOC(=O)CCCN3CCCCC3)c2)cc(OCCCCCCCCCCC)c1 turned out to be 99

The value of Size (d, nm) measured for the molecule CCCCCCCCCCCOc1cc(COC(=O)CCCN2CCN(CCO)CC2)cc(OCCCCCCCC)c1 turned out to be 181

The value of Size (d, nm) measured for the molecule CCCCCCCCCCCOc1cc(COC(=O)c2cc(OCCOCCOCCCC(=O)CCCN3CCCCC3)c(OCCOCCOCCOCc3ccccc3)c(OCCOCCOCCOC(=O)CCCN3CCCCC3)c2)cc(OCC(CC)CCCC)c1 (stereo not shown) turned out to be 83
